measured-target: human thyroid hormone receptors TRα1 (Homo sapiens, UniProt P10827)
Construct: made in house; host or cells: Sf9 insect cells (baculovirus)
Sequence (P10827 1-410 isoform P10827-2, one chain of several): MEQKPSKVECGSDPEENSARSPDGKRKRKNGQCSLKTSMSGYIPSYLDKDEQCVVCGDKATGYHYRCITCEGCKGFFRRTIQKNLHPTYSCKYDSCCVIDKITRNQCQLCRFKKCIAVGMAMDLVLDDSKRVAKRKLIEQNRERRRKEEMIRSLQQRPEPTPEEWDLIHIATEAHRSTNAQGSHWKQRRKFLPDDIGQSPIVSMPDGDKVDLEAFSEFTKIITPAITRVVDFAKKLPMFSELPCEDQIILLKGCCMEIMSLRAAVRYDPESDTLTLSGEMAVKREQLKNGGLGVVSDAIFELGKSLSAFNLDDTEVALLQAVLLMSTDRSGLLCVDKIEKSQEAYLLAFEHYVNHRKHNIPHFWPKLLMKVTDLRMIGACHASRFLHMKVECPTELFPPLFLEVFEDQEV
measurement-protocol: Receptor binding to TRα1 (gel filtration and scintillation proximity assay, labeled T3)
applied-conditions: SPA data; read-out: Ki TRα
Consider the cut-off 0.4 µM. If the recorded Ki is strictly smaller, the label is satisfied; if not, the label is not satisfied.

# count of solved cases: 3
Criterion: Ki strictly below 0.4 µM. Is it met by "Cc1cc(CC(=O)CP(=O)(O)O)cc(C)c1Oc1ccc(O)c(C(C)C)c1" ?
satisfied

Criterion: Ki strictly below 0.4 µM. Is it met by "COc1cc(OCP(=O)(O)O)cc(OC)c1Cc1ccc(O)c(C(C)C)c1" ?
not satisfied

Criterion: Ki strictly below 0.4 µM. Is it met by "Cc1cc(OCP(=O)(O)O)cc(C)c1Cc1ccc(F)c(C(C)C)c1" ?
not satisfied

Kindly consider the entry below.
Criterion: Ki strictly below 0.4 µM. Is it met by O=P(O)(O)Cc1cc(Cl)c(Oc2ccc(O)c(S(=O)(=O)N[C@@H]3C[C@H]4CC[C@@H]3C4)c2)c(Cl)c1 (relative stereo) ?
not satisfied

###

Each record here notes measured pKi.
measured-target: human thyroid hormone receptors TRβ1 (Homo sapiens, UniProt P10828)
Construct: made in house; host or cells: Sf9 insect cells (baculovirus)
Sequence (P10828 1-461): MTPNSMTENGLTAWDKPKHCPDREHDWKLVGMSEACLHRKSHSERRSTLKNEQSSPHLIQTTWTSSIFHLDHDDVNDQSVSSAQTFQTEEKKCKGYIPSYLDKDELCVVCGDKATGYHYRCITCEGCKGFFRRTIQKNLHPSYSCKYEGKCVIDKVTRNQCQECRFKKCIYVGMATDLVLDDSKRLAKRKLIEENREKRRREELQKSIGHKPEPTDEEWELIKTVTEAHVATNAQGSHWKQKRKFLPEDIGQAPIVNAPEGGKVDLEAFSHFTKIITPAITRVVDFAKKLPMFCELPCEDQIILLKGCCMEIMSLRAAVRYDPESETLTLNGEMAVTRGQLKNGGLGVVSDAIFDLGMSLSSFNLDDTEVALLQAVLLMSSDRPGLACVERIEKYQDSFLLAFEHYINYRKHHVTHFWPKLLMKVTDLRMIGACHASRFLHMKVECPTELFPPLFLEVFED
Sequence (P19793 1-462 partner): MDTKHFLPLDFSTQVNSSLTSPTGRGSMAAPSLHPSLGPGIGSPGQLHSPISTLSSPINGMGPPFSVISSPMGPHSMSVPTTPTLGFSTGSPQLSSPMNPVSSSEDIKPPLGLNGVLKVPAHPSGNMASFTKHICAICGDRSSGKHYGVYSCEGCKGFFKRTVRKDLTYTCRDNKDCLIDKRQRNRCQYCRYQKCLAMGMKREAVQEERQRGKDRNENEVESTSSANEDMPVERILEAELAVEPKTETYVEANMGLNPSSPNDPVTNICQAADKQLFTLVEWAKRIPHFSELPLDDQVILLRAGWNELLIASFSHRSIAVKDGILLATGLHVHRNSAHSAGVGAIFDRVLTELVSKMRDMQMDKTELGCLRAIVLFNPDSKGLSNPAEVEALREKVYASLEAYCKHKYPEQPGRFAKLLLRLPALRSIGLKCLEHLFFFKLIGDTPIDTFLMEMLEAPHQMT
measurement-protocol: Receptor binding to TRβ1 (gel filtration and scintillation proximity assay, labeled T3)
applied-conditions: SPA data; read-out: Ki TRβ
The scale used: pKi is minus the common logarithm of the concentration in molar units.

So, "Cc1cc(OCP(=O)(O)O)cc(C)c1Cc1ccc(O)c(C(C)C)c1" ? Its pKi was 8.48

Further cases:
So, "Cc1cc(OCP(C)(=O)O)cc(C)c1Cc1ccc(O)c(C(C)C)c1" ? Its pKi was 8.27
